The measured values listed here are drawn from the supplement of paper PMC12764529.

protocol details: folding stability dG unfold (combined trypsin and chymotrypsin); higher = more stable
Mark yes for reported folding stability dG unfold of 3 kcal/mol or greater; mark no for anything smaller.

Does folding stability dG unfold meet or surpass 3 kcal/mol for SAGGSAGGSAGGWDVEIEPFPDGFIFITAEGPNGRKLVIVVMVVPEGKLMYMIVPLDDLSAGGSAGGSAGGS [r10_140_TrROS] ?
yes

---

protocol details: folding stability dG unfold from trypsin proteolysis; higher = more stable
Kindly return Y if reported folding stability dG unfold is no lower than 1 kcal/mol; return N if it is lower.

Please review the entries below; each comes with its answer.
| sequence code | label |
| --- | --- |
| SAGGSAGGSMETVVTVPLPDGRTLTITRYPDGTVTVTYPDGTPVATRPVAPDTSDEAVVAALASAGGSAGGS [r12_990_JUSTAS] | N |
| SAGGSSIEEIKEALKKGYNIKITPTTGTSTLVPVEELIKDPNITPETSLSDLGIKEITLIPPKNGKLVSAGG [r13_587_JUSTAS] | N |
| PFRVMVDLERDPEDGWYKVTIMVQAKDGRPITPELIENAAREIFKQGFPIKKIKLEPYPNGYVHFKIEIPLS [r1_408_TrROS] | Y |
| SMSLVVSEEVDPATGTTTVTTTFPSPGVTVTATASAAGDSVTTTVTTTSPAPSAPTTTTTTTPVAPPGTDAS [r1_404_JUSTAS] | Y |
| SAGGMVTVDTDPTEDGTLRVTVTVPRPDGPALTLTLDFPPEAGSLAVVLARADEALAAEMARRGLALSAGGS [r8_464_JUSTAS] | N |

Continue with the sequence presented below.
Is reported folding stability dG unfold greater than or equal to 1 kcal/mol here: SAGMKPGEKVKVTLTLTETRVEEVDGEKKVEKRTLTIEVTVEVSEEDREKALEEAEELARKLAEEGLIPSAG [r5_532_TrROS_Hall]
Y

---

protocol details: folding stability dG unfold from chymotrypsin proteolysis; higher = more stable
Below, each entry is listed alongside its reported folding stability dG unfold.
Numeric only. Scale: kcal/mol

Answered examples (5):
| sequence code | unit | folding stability dG unfold |
| --- | --- | --- |
| SAGGSMGKTPDGGEVEFFEKPEENLIFAVVKHPDGSYYVAVFKKDEDKIELIDVKEVPEGEIEELASAGGSA [r2_336_TrMRF] | kcal/mol | 2.07 |
| SAGGMLDLSDVEVLNTVPIGGGNYLVLLKVPKLGKVVVVPASDLKKLKENVPNVKISFTPVAPSESGSAGGS [r16_61_TrMRF] | kcal/mol | 1.3 |
| SAGPVLYRVTITVEVSSSGEKGKTLTLEFLVPPSVSGEEVRDRVLALLKAQGYKVEKITVTVTPLPSSASAG [r14_979_JUSTAS] | kcal/mol | 5.36 |
| SAGGKVSVEVRGNGPGSYVALWLPGPGTVIAREFEDGDRFDDLPEDAEPSRVVFFGYDGVPEEFELGSAGGS [r8_487_TrMRF] | kcal/mol | 0.487 |
| SAGGKPKEIVIEVELEVVEVNGEKYLVLKAKIIDKETNEVYEVTAVFNLKTGKLVGIEVKKLTVEELKSAGG [r13_772_TrROS_Hall] | kcal/mol | 4.9 |

Please fill in: folding stability dG unfold reported for SAGGSMTVSTAPDGTLKVYDPATGKLNPLPVPPVPLVVSRSVQPDKGVVITTTTTPSGEVTVSTTALSAGGS [r16_453_JUSTAS] = 0.394

According to the records, this sequence SAGGSAGGSAGSMTPAEEKAREVEERLRREHPEFERVFVRVKEFRPETGEVTIEVEVEPRSAGGSAGGSAGG [r11_617_JUSTAS] displays folding stability dG unfold of -0.641
